# Test system: umbrella sedge (Cyperus difformis)
# EXPERIMENT_DESCRIPTION: Test B flooded paddy test
# Assay type: in vivo
# MEASUREMENT_SETUP: Flood (flooded paddy test), 125 g ai/ha; scale 0 to 100, 0 is no effect, 100 is complete control; 13 to 15 days
ATTRIBUTE_MEASURED: Plant response rating, Sedge, Umbrella

MOLECULE: COCCn1c(-c2cccc(Cl)c2)ncc(C(=O)C2=C(O)CCCC2=O)c1=O [Compound 147]
QUANTITATIVE_READOUT: 40

MOLECULE: CCCn1c(-c2ccsc2)ncc(C(=O)C2=C(O)C3CCC(C3)C2=O)c1=O (stereo not shown) [Compound 227]
QUANTITATIVE_READOUT: 85

MOLECULE: CCCCn1c(-c2cccc(F)c2)ncc(C(=O)C2=C(O)C3CCC(C3)C2=O)c1=O (stereo not shown) [Compound 237]
QUANTITATIVE_READOUT: 55

MOLECULE: COCCCn1c(-c2cccc(F)c2)ncc(C(=O)C2=C(O)C3CCC(C3)C2=O)c1=O (stereo not shown) [Compound 238]
QUANTITATIVE_READOUT: 65

MOLECULE: O=C1CCCC(O)=C1C(=O)c1cnc(-c2cc(F)cc(F)c2)n(C2CCCCC2)c1=O [Compound 181]
QUANTITATIVE_READOUT: 85

MOLECULE: CCCCc1ncc(C(=O)C2=C(O)CCCC2=O)c(=O)n1-c1ccc(C)cc1 [Compound 67]
QUANTITATIVE_READOUT: 0

MOLECULE: O=C(C1=C(O)C2CCC(C2)C1=O)c1cnc(-c2cc(F)c(F)c(F)c2)n(C2CCCCC2)c1=O (stereo not shown) [Compound 251]
QUANTITATIVE_READOUT: 65

MOLECULE: O=C1CCCC(O)=C1C(=O)c1cnc(-c2cc(F)cc(F)c2)n(-c2ccccc2)c1=O [Compound 161]
QUANTITATIVE_READOUT: 0

MOLECULE: CCCn1c(-c2ccco2)ncc(C(=O)C2=C(O)CCCC2=O)c1=O [Compound 110]
QUANTITATIVE_READOUT: 50

MOLECULE: COCCn1c(-c2ccsc2)ncc(C(=O)C2=C(O)C3CCC(C3)C2=O)c1=O (stereo not shown) [Compound 228]
QUANTITATIVE_READOUT: 75

MOLECULE: CCc1ccc(-n2c(-c3cc(F)cc(F)c3)ncc(C(=O)C3=C(O)CCCC3=O)c2=O)cc1 [Compound 158]
QUANTITATIVE_READOUT: 100

MOLECULE: CCCc1ncc(C(=O)C2=C(O)CCCC2=O)c(=O)n1Cc1cccc(OC(F)(F)F)c1 [Compound 105]
QUANTITATIVE_READOUT: 0

MOLECULE: O=C1CCCC(O)=C1C(=O)c1cnc(-c2ccc(F)cc2)n(C2CCCCC2)c1=O [Compound 197]
QUANTITATIVE_READOUT: 75

MOLECULE: Cc1cc(-n2c(-c3ccccc3)ncc(C(=O)C3=C(O)CCCC3=O)c2=O)ccc1F [Compound 53]
QUANTITATIVE_READOUT: 90

MOLECULE: COc1ccc(-n2c(-c3ccccc3)ncc(C(=O)C3=C(O)CCCC3=O)c2=O)c(OC)c1 [Compound 256]
QUANTITATIVE_READOUT: 75

MOLECULE: CCCc1ncc(C(=O)C2=C(O)CCCC2=O)c(=O)n1Cc1cccc(OC)c1 [Compound 104]
QUANTITATIVE_READOUT: 0

Source of measurements: patent US8952024B2
